Biological target: USP7 catalytic domain (amino acids 208–560) (Homo sapiens, UniProt Q93009)
Sequence (Q93009 208-560): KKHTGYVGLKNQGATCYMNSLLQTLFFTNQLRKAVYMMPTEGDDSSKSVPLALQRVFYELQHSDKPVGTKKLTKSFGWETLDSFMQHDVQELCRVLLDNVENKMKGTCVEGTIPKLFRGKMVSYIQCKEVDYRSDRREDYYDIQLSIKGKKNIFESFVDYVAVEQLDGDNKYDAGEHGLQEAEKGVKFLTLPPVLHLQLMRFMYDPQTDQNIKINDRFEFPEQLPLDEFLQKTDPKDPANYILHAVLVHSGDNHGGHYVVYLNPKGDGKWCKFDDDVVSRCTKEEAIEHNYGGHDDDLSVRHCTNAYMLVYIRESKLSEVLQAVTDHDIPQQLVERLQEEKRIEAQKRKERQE
Test: Ub-AMC assay, USP7 catalytic domain
Type: biochemical
Conditions: catalytic domain, Ub-AMC; concentrations up to 100 μM
reported.metric: inhibition of USP7

>>> reported_result("O=c1c2ccc(Cl)cc2ncn1CC1(O)CCN(CCCc2ccccc2)CC1 [Compound 4]")
"abrogated USP7 activity"
>>> reported_result("N#CC1(Cn2cnc3cc(Cl)ccc3c2=O)CCN(C(=O)CCc2ccccc2)CC1 [Compound 3]")
"little inhibition"
>>> reported_result("O=C(CCc1ccccc1)N1CCC(O)(Cn2cnc3cc(Cl)ccc3c2=O)C1 (stereo not shown) [Compound 5]")
"abrogated USP7 activity"
>>> reported_result("O=C(CCc1ccccc1)N1CCC(Cn2cnc3cc(Cl)ccc3c2=O)CC1 [Compound 2]")
"little inhibition"
